test system: HT-1080 (ATCC, CCL-121) cells; assay: HT-1080 cell viability assay with ferroptosis inducer RSL3 (Cell Titer-Glo); format: cell-based; settings: Homo sapiens; HT-1080 cells treated with RSL3; 3-fold, 10-point dilution, 1.1 μM highest concentration; Table 2; read-out: EC50 (nM), ferroptosis inhibitory activity
metric name: EC50

Examples from the recorded data:
COc1cc(Nc2ccc3c(c2)n(C)c(=O)n3C)cc(OC)c1OC :: 0.1 to 100 nM
CC(C)(C)NC(=O)N1Cc2ccc(Nc3ccc(N4CCC(C(F)(F)F)CC4)cc3)cc2C1 :: 0.1 to 100 nM
CN(C)CCn1c(=O)oc2ccc(Nc3ccc(N4CCC(C(F)(F)F)CC4)cc3)cc21 :: 0.1 to 100 nM

Task item: Provide EC50, recorded with HT-1080 (ATCC, CCL-121) cells, of CN1C(=O)COc2cc(Nc3ccc4cc(N5CCC(C(F)(F)F)CC5)ccc4c3)ccc21
Reply: 0.1 to 100 nM

Task item: Answer briefly: EC50 recorded on HT-1080 (ATCC, CCL-121) cells for CCNC(=O)c1cn(C)c2ccc(Nc3ccc(N4CCC(C)CC4)cc3)cc12
Reply: 0.1 to 100 nM

Task item: State EC50 on HT-1080 (ATCC, CCL-121) cells. Entry: CN1Cc2cc(Nc3ccc(N4CCCCC4)c(N(C)C)c3)ccc2C1=O
Reply: 0.1 to 100 nM

====

test system: HT-1080 (ATCC, CCL-121) cells; experiment: HT-1080 cell viability assay with ferroptosis inducer RSL3 (Cell Titer-Glo); type: cell-based; conditions: Homo sapiens; HT-1080 cells treated with RSL3; 3-fold, 10-point dilution, 1.1 μM highest concentration; Table 2; read-out: EC50 (nM), ferroptosis inhibitory activity
Measured EC50 values are reported for all entries that follow.

Reference set, count: 5
C#Cc1ccc(Nc2ccc3c(c2)n(C)c(=O)n3C)cc1 [Compound 290] :: 0.1 to 100 nM
O=C1c2ccc(Nc3ccc(N4CCC(C(F)(F)F)CC4)cc3)cc2CN1C1CC1 [Compound 209] :: 0.1 to 100 nM
COCCN1C(=O)COc2cc(Nc3ccc(N4CCC(C(F)(F)F)CC4)cc3)ccc21 [Compound 11] :: 0.1 to 100 nM
Cc1cc(N2CCC(C(F)(F)F)CC2)c(F)cc1Nc1ccc2c(c1)OCC(=O)N2C [Compound 59] :: 0.1 to 100 nM
CN1C(=O)COc2cc(Nc3ccc(N4CCC(C(F)(F)F)CC4)cc3F)ccc21 [Compound 34] :: 100 to 1000 nM

// next entry
Task item: Identify measured EC50 obtained with HT-1080 (ATCC, CCL-121) cells for NC(=O)NCCn1cc2cc(Nc3ccc(N4CCC(C(F)(F)F)CC4)cc3)ccc2n1 [Compound 419] .
Reply: 0.1 to 100 nM

====

system: HT-1080 (ATCC, CCL-121) cells; experiment: HT-1080 cell viability assay with ferroptosis inducer RSL3 (Cell Titer-Glo); type: cell-based; settings: HT-1080 cells treated with RSL3; 3-fold, 10-point dilution, 1.1 μM highest concentration; Table 2; read-out: EC50 (nM), ferroptosis inhibitory activity
Quick reference for EC50 among some compounds

Cc1cc(Nc2ccc3c(c2)OCC(=O)N3)ccc1N1CC(C)OC(C)C1 (centres unmarked) [Compound 145] :: 0.1 to 100 nM

Kindly review the next compound as well.
Task item: Consider the compound CC1CN(c2ccc(Nc3ccc4c(c3)OC(C)C(=O)N4)cc2)CC(C)O1 (centres unmarked) [Compound 144] . State its measured EC50.
Reply: 0.1 to 100 nM

The reported numbers originate from patent US20240327393A1.
